Source of measurements: patent US20080306044A1

- measured_on: human V1a receptor (Homo sapiens, UniProt P37288)
- Construct: expressed in transfected cells
- Sequence (P37288 whole entry): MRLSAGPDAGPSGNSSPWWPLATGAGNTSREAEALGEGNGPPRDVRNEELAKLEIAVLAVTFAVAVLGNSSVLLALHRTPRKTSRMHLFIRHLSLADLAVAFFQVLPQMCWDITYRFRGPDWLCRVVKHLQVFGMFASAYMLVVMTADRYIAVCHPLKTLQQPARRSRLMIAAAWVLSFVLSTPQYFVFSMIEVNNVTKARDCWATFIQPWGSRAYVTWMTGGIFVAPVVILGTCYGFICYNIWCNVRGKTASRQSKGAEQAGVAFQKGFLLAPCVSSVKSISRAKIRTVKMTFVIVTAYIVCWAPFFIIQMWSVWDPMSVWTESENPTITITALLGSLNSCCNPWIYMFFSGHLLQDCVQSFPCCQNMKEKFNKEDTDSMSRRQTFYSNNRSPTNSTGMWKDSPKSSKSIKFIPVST
- procedure_details: cell-based

- compound: "COc1cc(C(=O)N2CC[C@@]3(CCC(=CC(=O)NCCN(C)C)C3)Cc3ccccc32)ccc1NC(=O)c1cc(F)ccc1Cl"
  measured_on: "human V1a receptor (Homo sapiens, UniProt P37288)"
  unit_text: "nM"
  IC50: 150
- compound: "COc1cc(C(=O)N2CC[C@@]3(CCC(N4CCOCC4)C3)Cc3ccccc32)ccc1NC(=O)c1cc(F)ccc1Cl (stereo partly shown)"
  measured_on: "human V1a receptor (Homo sapiens, UniProt P37288)"
  unit_text: "nM"
  IC50: 240
- compound: "Cn1ccnc1C1=CCCC12CCN(C(=O)c1ccc(NC(=O)c3cc(F)ccc3Cl)cc1)c1ccccc1C2 (stereo not shown)"
  measured_on: "human V1a receptor (Homo sapiens, UniProt P37288)"
  unit_text: "nM"
  IC50: 130
- compound: "COc1cc(C(=O)N2CC[C@@]3(CCC(=CC(=O)NCCN4CCOCC4)C3)Cc3ccccc32)ccc1NC(=O)c1cc(F)ccc1Cl"
  measured_on: "human V1a receptor (Homo sapiens, UniProt P37288)"
  unit_text: "nM"
  IC50: 220
- compound: "NS(=O)(=O)NC(=O)C1=C[C@@]2(CC1)CCN(C(=O)c1ccc(NC(=O)c3cc(F)ccc3Cl)cc1)c1ccccc1C2"
  measured_on: "human V1a receptor (Homo sapiens, UniProt P37288)"
  unit_text: "nM"
  IC50: 77
- compound: "CN(C)C1CCCC12CCN(C(=O)c1ccc(NC(=O)c3cc(F)ccc3Cl)cc1)c1ccccc1C2 (stereo not shown)"
  measured_on: "human V1a receptor (Homo sapiens, UniProt P37288)"
  unit_text: "nM"
  IC50: 70
- compound: "COc1cc(C(=O)N2CC[C@@]3(CCC(=CC(=O)O)C3)Cc3ccccc32)ccc1NC(=O)c1cc(F)ccc1Cl"
  measured_on: "human V1a receptor (Homo sapiens, UniProt P37288)"
  unit_text: "nM"
  IC50: 30
